The origin of these recorded values is PubChem BioAssay (NCI).

- System: NCI-H23 lung
- test_name: NCI-60 one-dose screen, 48 h (100 = growth as untreated, 0 = no growth, -100 = all killed)
- test_settings: 10 µM unless noted
Compounds without any hit were thinned out: in the full panel of roughly 83,000, 20% have a hit.
Can you tell me growth for the items I'm about to list?
Answers are plain numbers, in %.

Before answering, review these 2 worked examples.
CCC(C)C1NC(=O)C(CCNCS(=O)(=O)O)NC(=O)C(NC(=O)C(CCNCS(=O)(=O)O)NC(=O)C(NC(=O)C(CCNCS(=O)(=O)O)NC(=O)CCCCC(C)C)C(C)O)CCNC(=O)C(C(C)O)NC(=O)C(CCNCS(=O)(=O)O)NC(=O)C(CCNCS(=O)(=O)O)NC(=O)C(C(C)CC)NC1=O (stereo not drawn) = 66.6
O=[N+]([O-])c1cc([N+](=O)[O-])c(N2CCCC2)cc1NN=C(c1ccc(O)cc1)c1ccc(O)cc1 = 9.44

Moving on to the next molecule.
IN: // growth lookup, key: O=C1N=C(N2CCOCC2)S/C1=C\c1cn(-c2ccccc2)nc1-c1ccccc1
OUT: 95.2
